- studyTarget: T1, human LIGHT (TNFSF14), full length, membrane-bound (214E allele) (human, UniProt O43557 1-240)
- T1 construct: also called membrane LIGHT; human membrane LIGHT
- T1 sequence (O43557 whole entry K214E): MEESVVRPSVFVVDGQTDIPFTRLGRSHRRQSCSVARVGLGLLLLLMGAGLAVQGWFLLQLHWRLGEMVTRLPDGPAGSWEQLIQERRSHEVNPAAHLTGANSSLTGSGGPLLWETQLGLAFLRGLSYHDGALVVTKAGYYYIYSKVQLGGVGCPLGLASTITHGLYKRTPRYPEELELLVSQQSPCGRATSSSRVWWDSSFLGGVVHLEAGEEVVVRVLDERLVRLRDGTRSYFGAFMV
- experimentalProtocol: flow cytometry, transfected HEK293FF, mAb at EC50
For each record, write down the corresponding binding, % of WT.
// note: answer is a bare numeric in %

Give the measured binding, % of WT of 2B11 (antibody, human IgG4, V domains shown, chimeric human IgG4 (S-to-P, L-to-E at 248), human CL; also called Parental 2B11) VH: EVQLVESGAELVRPGVSVKISCKGSGYTFTDYAIHWVKQSHAKSLEWIGVISTYYGDASYNQKFKGKATMTVDKSSSTAYMELARLTSEDSAIYYCARSRGEYGNYDAMDYWGQGTSVTVSS VL: DIVLTQSPASLAVSLGQRATISCRASESVDSYGNSFMHWYQQKPGQPPKLLIYRASNLESGIPARFSGSGSRTDFTLTINPVEADDVATYYCQQSNEDPYTFGGGTKLEIK . 100

Give the measured binding, % of WT of 3B04 (antibody, human IgG4, V domains shown, chimeric: mouse variable domains on human IgG4 HC (S-to-P and L-to-E at 248) and human CL; also called Parental 3B04; 3B04 chimeric) VH: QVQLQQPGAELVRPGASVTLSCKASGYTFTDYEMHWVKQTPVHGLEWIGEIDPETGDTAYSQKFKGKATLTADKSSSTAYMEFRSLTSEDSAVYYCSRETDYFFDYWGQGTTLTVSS VL: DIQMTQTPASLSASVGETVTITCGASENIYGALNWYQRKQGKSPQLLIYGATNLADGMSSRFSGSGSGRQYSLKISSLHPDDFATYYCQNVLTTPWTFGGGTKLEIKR . 100

Give the measured binding, % of WT of 2E08 (antibody, human IgG4, V domains shown, chimeric human IgG4 (S-to-P, L-to-E at 248), human CL; also called Parental 2E08) VH: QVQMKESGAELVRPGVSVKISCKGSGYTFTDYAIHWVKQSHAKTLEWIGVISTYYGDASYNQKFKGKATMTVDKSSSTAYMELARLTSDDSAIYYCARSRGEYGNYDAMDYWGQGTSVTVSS VL: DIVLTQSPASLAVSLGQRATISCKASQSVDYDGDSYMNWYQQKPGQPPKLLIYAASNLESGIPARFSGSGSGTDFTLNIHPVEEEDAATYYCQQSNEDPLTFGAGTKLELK . 100

Data provenance is patent US20230035798A1.
